Each recorded value in this set is attributed to PubChem BioAssay AID2060620.

tested on: 328373-195-R-J1-PDC complex spheroids, viability % test/control; experiment: Anticancer human tumor 328373-195-R-J1-PDC patient-derived head and neck squamous carcinoma cell line growth inhibition [CLK]; details: second compound 0.316 µM; first compound 1 µM; stronger effect = lower value;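 also: spheroids exposed to the agents for 7 days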
Reported viability, T/C by item:
readout_name: viability, T/C

molecule="COC1C=CCC(C)C(C)S(=O)(=O)NC(=O)c2ccc3c(c2)N(CC2CCC21)CC1(CCCc2cc(Cl)ccc21)CO3 (configuration not stated) + CN1CCN(c2cc(C(=O)Nc3cc4cc(-c5cnn(C)c5)ccc4cn3)ccn2)CC1" readout_name="viability, T/C" value_observed=32.4%
molecule="Nc1ccn(C2OC(CO)C(O)C2(F)F)c(=O)n1 (configuration not stated) + CNC(=O)c1ccc(Nc2nc(OC3CCCC3)c3c(-c4ccc5nc(C)oc5c4)c[nH]c3n2)c(OC)c1" readout_name="viability, T/C" value_observed=2.46%
molecule="CC(Nc1ccc2c(c1)OCCn1cc(N3C(=O)OCC3C(F)F)nc1-2)C(N)=O (configuration not stated) + CNC(=O)c1ccc(Nc2nc(OC3CCCC3)c3c(-c4ccc5nc(C)oc5c4)c[nH]c3n2)c(OC)c1" readout_name="viability, T/C" value_observed=9.39%
molecule="CCN1CCN(Cc2ccc(Nc3ncc(F)c(-c4cc(F)c5nc(C)n(C(C)C)c5c4)n3)nc2)CC1 + CN1CCN(c2cc(C(=O)Nc3cc4cc(-c5cnn(C)c5)ccc4cn3)ccn2)CC1" readout_name="viability, T/C" value_observed=18.5%
molecule="C#Cc1c(F)ccc2cc(O)cc(-c3ncc4c(N5CC6CCC(C5)N6)nc(OCC56CCCN5CC(F)C6)nc4c3F)c12 (configuration not stated) + CNC(=O)c1ccc(Nc2nc(OC3CCCC3)c3c(-c4ccc5nc(C)oc5c4)c[nH]c3n2)c(OC)c1" readout_name="viability, T/C" value_observed=8.78%
molecule="CCN1CCN(Cc2ccc(Nc3ncc(F)c(-c4cc(F)c5nc(C)n(C(C)C)c5c4)n3)nc2)CC1 + CNC(=O)c1ccc(Nc2nc(OC3CCCC3)c3c(-c4ccc5nc(C)oc5c4)c[nH]c3n2)c(OC)c1" readout_name="viability, T/C" value_observed=14.6%
molecule="O=C(c1cc(Cc2n[nH]c(=O)c3ccccc23)ccc1F)N1CCN(C(=O)C2CC2)CC1 + CN1CCN(c2cc(C(=O)Nc3cc4cc(-c5cnn(C)c5)ccc4cn3)ccn2)CC1" readout_name="viability, T/C" value_observed=27.4%
molecule="COc1c(OCCCN2CCOCC2)ccc2c3n(c(=NC(=O)c4cnc(N)nc4)nc12)CCN3 + CN1CCN(c2cc(C(=O)Nc3cc4cc(-c5cnn(C)c5)ccc4cn3)ccn2)CC1" readout_name="viability, T/C" value_observed=4.17%
molecule="CC1(C)CCC(CN2CCN(c3ccc(C(=O)NS(=O)(=O)c4ccc(NCC5CCOCC5)c([N+](=O)[O-])c4)c(Oc4cnc5[nH]ccc5c4)c3)CC2)=C(c2ccc(Cl)cc2)C1 + CNC(=O)c1ccc(Nc2nc(OC3CCCC3)c3c(-c4ccc5nc(C)oc5c4)c[nH]c3n2)c(OC)c1" readout_name="viability, T/C" value_observed=9.51%
molecule="CC(Nc1ccc2c(c1)OCCn1cc(N3C(=O)OCC3C(F)F)nc1-2)C(N)=O (configuration not stated) + CN1CCN(c2cc(C(=O)Nc3cc4cc(-c5cnn(C)c5)ccc4cn3)ccn2)CC1" readout_name="viability, T/C" value_observed=23.8%
molecule="COc1ccc([C@@H](O)c2cc(-c3ncnc4cc(N5CCOCC5)ccc34)c(F)cc2Cl)nn1 + CNC(=O)c1ccc(Nc2nc(OC3CCCC3)c3c(-c4ccc5nc(C)oc5c4)c[nH]c3n2)c(OC)c1" readout_name="viability, T/C" value_observed=7.72%
molecule="Nc1ccccc1NC(=O)c1ccc(CNC(=O)OCc2cccnc2)cc1 + CN1CCN(c2cc(C(=O)Nc3cc4cc(-c5cnn(C)c5)ccc4cn3)ccn2)CC1" readout_name="viability, T/C" value_observed=16.6%
molecule="CC(=O)O[C@H]1C(=O)[C@@]2(C)[C@H]([C@H](OC(=O)c3ccccc3)[C@]3(O)C[C@H](OC(=O)[C@H](O)[C@@H](NC(=O)c4ccccc4)c4ccccc4)C(C)=C1C3(C)C)[C@]1(OC(C)=O)CO[C@@H]1C[C@@H]2O + CN1CCN(c2cc(C(=O)Nc3cc4cc(-c5cnn(C)c5)ccc4cn3)ccn2)CC1" readout_name="viability, T/C" value_observed=5.22%
molecule="COC1C=CCC(C)C(C)S(=O)(=O)NC(=O)c2ccc3c(c2)N(CC2CCC21)CC1(CCCc2cc(Cl)ccc21)CO3 (configuration not stated) + CNC(=O)c1ccc(Nc2nc(OC3CCCC3)c3c(-c4ccc5nc(C)oc5c4)c[nH]c3n2)c(OC)c1" readout_name="viability, T/C" value_observed=8.54%
molecule="CC1(C)CCC(CN2CCN(c3ccc(C(=O)NS(=O)(=O)c4ccc(NCC5CCOCC5)c([N+](=O)[O-])c4)c(Oc4cnc5[nH]ccc5c4)c3)CC2)=C(c2ccc(Cl)cc2)C1 + CN1CCN(c2cc(C(=O)Nc3cc4cc(-c5cnn(C)c5)ccc4cn3)ccn2)CC1" readout_name="viability, T/C" value_observed=31.2%
molecule="COc1c(OCCCN2CCOCC2)ccc2c3n(c(=NC(=O)c4cnc(N)nc4)nc12)CCN3 + CNC(=O)c1ccc(Nc2nc(OC3CCCC3)c3c(-c4ccc5nc(C)oc5c4)c[nH]c3n2)c(OC)c1" readout_name="viability, T/C" value_observed=5.91%
molecule="C=C(F)C(=O)N1CCN(c2nc(OCC3CCCN3C)nc3c2CCN(c2cccc4cccc(Cl)c24)C3)CC1CC#N (configuration not stated) + CN1CCN(c2cc(C(=O)Nc3cc4cc(-c5cnn(C)c5)ccc4cn3)ccn2)CC1" readout_name="viability, T/C" value_observed=34.3%
